Here, each record is paired with measured Trimeric HA Binding: RLU data.
Target: recombinant homotrimeric HA A/Hong Kong/2108/03 H9N2 (Influenza A virus A/HK/2108/2003(H9N2))
Experiment: protein microarray, purified IgG, trimeric HA
Conditions: remark: other sources report otherwise
measured-metric: Trimeric HA Binding: RLU (RLU)

binder	measured-metric	observed-value
TCN-552 (5249_I23) (antibody, V domains shown) VH: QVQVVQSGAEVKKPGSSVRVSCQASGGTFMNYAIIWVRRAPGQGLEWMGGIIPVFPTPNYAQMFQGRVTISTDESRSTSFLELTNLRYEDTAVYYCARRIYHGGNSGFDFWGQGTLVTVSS VL: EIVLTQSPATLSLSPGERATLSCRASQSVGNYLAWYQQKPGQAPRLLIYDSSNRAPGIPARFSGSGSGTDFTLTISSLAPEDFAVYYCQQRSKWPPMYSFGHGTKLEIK	Trimeric HA Binding: RLU	161
TCN-539 (5056_A08) (antibody, V domains shown) VH: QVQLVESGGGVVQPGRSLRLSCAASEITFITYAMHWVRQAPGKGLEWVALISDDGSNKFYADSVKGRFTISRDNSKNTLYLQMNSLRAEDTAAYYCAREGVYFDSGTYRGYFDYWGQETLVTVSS VL: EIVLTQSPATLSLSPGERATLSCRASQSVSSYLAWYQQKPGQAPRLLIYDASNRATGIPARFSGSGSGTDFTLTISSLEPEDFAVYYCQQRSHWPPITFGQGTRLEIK	Trimeric HA Binding: RLU	140
TCN-545 (5082_I15) (antibody, V domains shown) VH: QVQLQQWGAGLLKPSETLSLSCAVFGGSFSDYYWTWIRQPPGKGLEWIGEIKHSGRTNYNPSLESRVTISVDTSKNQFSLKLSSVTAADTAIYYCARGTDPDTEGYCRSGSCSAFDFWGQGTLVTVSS VL: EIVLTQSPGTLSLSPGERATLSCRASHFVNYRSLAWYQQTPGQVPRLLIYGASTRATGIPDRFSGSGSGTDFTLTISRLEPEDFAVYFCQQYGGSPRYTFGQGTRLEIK	Trimeric HA Binding: RLU	262
TCN-527 (5086_C06) (antibody, V domains shown) VH: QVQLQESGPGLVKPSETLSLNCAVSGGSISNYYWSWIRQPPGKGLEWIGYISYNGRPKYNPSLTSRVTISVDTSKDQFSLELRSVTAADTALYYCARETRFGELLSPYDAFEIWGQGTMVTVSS VL: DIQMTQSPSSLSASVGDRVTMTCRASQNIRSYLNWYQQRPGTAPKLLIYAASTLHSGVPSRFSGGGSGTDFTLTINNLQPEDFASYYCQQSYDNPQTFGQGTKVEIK	Trimeric HA Binding: RLU	18700
TCN-550 (5096_F06) (antibody, V domains shown) VH: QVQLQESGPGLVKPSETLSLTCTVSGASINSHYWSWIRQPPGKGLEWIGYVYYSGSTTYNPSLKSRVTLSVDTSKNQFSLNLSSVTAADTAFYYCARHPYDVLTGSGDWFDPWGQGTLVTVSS VL: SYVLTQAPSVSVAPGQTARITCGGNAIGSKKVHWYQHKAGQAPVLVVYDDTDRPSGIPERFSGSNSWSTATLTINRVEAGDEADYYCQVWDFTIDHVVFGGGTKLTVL	Trimeric HA Binding: RLU	150
